List of solubility values.
Test: Aqueous solubility
Type: physicochemical
Conditions: water; read-out: S

Some compounds with known solubility results, for comparison:
O=C(CCCOc1ccc2[nH]c3nc(O)nc-3cc2c1)N1CCN(C(c2ccc(F)cc2)c2ccc(F)cc2)CC1 = < 10000 µg/mL
O=C(CCCOc1ccc2[nH]c3nc(O)nc-3cc2c1)N1CCN(CC2CCCCCC2)CC1 = < 10000 µg/mL
CCC(CC)CN1CCN(C(=O)CCCOc2ccc3[nH]c4nc(O)nc-4cc3c2)CC1 = > 10000 µg/mL
O=C(CCCCOc1ccc2[nH]c3nc(O)nc-3cc2c1)N1CCN(Cc2ccccc2)CC1 = > 10000 µg/mL
Cn1c(O)nc2nc3ccc(OCCCC(=O)N4CCN(CC5CCCCC5)CC4)cc3cc21 = > 10000 µg/mL
CCCC(CCC)CN1CCN(C(=O)CCCOc2ccc3[nH]c4nc(O)nc-4cc3c2)CC1 = < 10000 µg/mL
O=C(CCCOc1ccc2[nH]c3nc(O)nc-3cc2c1)N1CCNCC1 = > 10000 µg/mL
O=C(CCCOc1ccc2[nH]c3nc(O)nc-3cc2c1)N1CCN(CC(=O)N2CCCC2)CC1 = > 10000 µg/mL

Field request: solubility | item: O=C(CCCOc1ccc2[nH]c3nc(O)nc-3cc2c1)N1CCN(Cc2ccc3c(c2)OCO3)CC1 10000 µg/mL

Which solubility is listed for Oc1nc2cc3cc(N4CCOCC4)ccc3[nH]c-2n1 ? < 10000 µg/mL
